method: Solubility in DMSO
Type: physicochemical
test-conditions: organic solvent or mixture, room temperature
readout-name: solubility (mg/mL)
Answers are plain numbers, in mg/mL.

Data request: # input compound: CN(C)/N=N/c1ccc(C(=O)c2ccc(OCCC(=O)NCC(N)=O)cc2)cc1 [Example 8] ; wanted: its solubility
Data returned: 833

* * *

method: Solubility in water
Assay type: physicochemical
test-conditions: water, 25 °C, water, room temperature (25° C.); read-out: water solubility at room temperature (25° C.)
readout-name: solubility (mg/mL)
One number for each entry, in mg/mL.

Data request: # input molecule: `CN(C)/N=N/c1ccc(C(=O)c2ccc(OCCC(=O)NCC(=O)[O-])cc2)cc1.[Na+]` ; wanted: its solubility
Data returned: 500

Values were extracted from patent US8034797B2.
